SYSTEM_TESTED: C-X-C chemokine receptor type 4 (Homo sapiens, UniProt P61073)
Sequence (P61073 whole entry): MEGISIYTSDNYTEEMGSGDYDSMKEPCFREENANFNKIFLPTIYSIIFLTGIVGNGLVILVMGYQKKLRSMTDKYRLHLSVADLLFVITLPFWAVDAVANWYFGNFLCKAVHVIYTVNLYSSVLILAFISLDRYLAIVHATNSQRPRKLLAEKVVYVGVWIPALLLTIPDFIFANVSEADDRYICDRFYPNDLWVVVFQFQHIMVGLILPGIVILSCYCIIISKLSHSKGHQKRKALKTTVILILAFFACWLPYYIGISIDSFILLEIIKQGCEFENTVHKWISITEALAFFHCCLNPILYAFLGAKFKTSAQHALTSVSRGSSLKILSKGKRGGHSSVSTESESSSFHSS
TEST_PROTOCOL: Antagonist activity at CXCR4 in human SUP-T1 cells assessed as inhibition of CXCL12-induced ERK phosphorylation preincubated with 15 mins followed by CXCL12 stimulation and measured after 12 mins by flow cytometry analysis
Format: functional, cell-based
Peptide text beside a SMILES is read from it.
// reported IC50 for each item listed

// solved cases for IC50 follow
COMPOUND | IC50
CC[C@H](C)[C@H](N)C(=O)N[C@H](CC(C)C)C(=O)N[C@@H](CCCNC(=N)N)C(=O)N[C@@H](Cc1c[nH]c2ccccc12)C(=O)N[C@@H](CO)C(=O)N[C@@H](CCCNC(=N)N)C(=O)N[C@@H](CCCCN)C(=O)N[C@@H](CC(C)C)C(=O)N1CCC[C@H]1C(=O)N[C@@H](CS)C(=O)N[C@H](C(=O)N[C@@H](CO)C(=O)O)C(C)C | > 100 µM
CC(C)C[C@H](NC(=O)[C@@H](NC(=O)[C@@H]1CCCN1C(=O)[C@@H](NC(=O)[C@H](CO)NC(=O)[C@@H](NC(=O)[C@H](CCC(N)=O)NC(=O)[C@@H]1CCCN1C(=O)[C@@H](NC(=O)[C@H](CCCCN)NC(=O)[C@H](CCCCN)NC(=O)[C@@H](NC(=O)[C@H](Cc1ccc(O)cc1)NC(=O)[C@H](CCCNC(=N)N)NC(=O)[C@@H](NC(=O)[C@@H](N)CC(C)C)C(C)C)[C@@H](C)O)C(C)C)C(C)C)[C@@H](C)O)[C@@H](C)O)C(=O)O (H-LVRYTKKVPQVSTPTL-OH) | > 100 µM

Query compound follows.
Request: Entry CC[C@@H](C)[C@@H](NC(C)=O)C(=O)N[C@@H](CC(C)C)C(=O)N[C@@H](CCCNC(=N)N)C(=O)N[C@@H](Cc1c[nH]c2ccccc12)C(=O)N[C@@H](CO)C(=O)N[C@@H](CCCNC(=N)N)C(=O)N[C@@H](CCCCN)C(=O)N[C@@H](CC(C)C)C(=O)N1CCC[C@H]1C(=O)N[C@@H](CS)C(=O)N[C@H](C(=O)N[C@@H](CO)C(=O)O)C(C)C needs its IC50 filled in; supply it.
Response: 17.2 µM
